Target system: Phosphatidylinositol 4,5-bisphosphate 3-kinase catalytic subunit delta isoform (Homo sapiens)
Sequence (whole entry): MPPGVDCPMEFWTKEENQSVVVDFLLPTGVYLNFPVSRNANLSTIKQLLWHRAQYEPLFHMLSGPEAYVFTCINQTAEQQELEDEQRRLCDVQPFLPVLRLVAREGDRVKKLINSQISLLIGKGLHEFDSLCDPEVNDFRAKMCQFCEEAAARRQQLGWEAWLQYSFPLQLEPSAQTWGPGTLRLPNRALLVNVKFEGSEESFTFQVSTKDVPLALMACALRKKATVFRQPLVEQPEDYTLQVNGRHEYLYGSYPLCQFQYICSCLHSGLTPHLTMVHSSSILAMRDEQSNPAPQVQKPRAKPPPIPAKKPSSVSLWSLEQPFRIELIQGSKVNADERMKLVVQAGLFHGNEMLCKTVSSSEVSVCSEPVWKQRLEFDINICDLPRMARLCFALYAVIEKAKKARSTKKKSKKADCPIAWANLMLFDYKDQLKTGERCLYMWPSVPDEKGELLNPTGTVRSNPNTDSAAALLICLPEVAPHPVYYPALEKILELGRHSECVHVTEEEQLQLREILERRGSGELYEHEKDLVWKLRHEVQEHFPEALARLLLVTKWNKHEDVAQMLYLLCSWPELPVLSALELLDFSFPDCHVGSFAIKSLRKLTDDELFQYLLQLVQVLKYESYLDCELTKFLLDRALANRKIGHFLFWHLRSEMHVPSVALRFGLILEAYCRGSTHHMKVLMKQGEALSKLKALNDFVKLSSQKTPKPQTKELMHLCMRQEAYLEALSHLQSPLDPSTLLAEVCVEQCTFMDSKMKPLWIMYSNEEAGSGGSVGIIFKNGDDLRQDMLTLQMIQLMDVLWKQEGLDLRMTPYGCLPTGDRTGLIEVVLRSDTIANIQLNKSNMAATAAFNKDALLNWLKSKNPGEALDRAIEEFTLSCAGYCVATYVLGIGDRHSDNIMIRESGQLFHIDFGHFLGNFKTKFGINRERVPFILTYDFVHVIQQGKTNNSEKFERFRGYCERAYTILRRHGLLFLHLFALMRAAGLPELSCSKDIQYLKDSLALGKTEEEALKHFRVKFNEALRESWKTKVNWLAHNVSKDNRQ
Procedure text: Inhibition of PI3Kdelta assessed as enzyme activity relative to control
Design: concentration or dose not given beside the values
Could you please mark YES for values of Activity below 4% and NO for values at or above it?

Lab note: Activity threshold 4%. Does this compound come in strictly under it? CC(=O)Nc1cncc(-c2cnc(N)nc2)c1
NO

And for Cc1ccc(S(=O)(=O)Nc2cncc(-c3cnc(N)nc3)c2)cc1 ?
YES

And for Nc1ncc(-c2cncc(NS(=O)(=O)c3ccc4ccccc4c3)c2)cn1 ?
NO

And for Nc1ncc(-c2cncc(NS(=O)(=O)c3ccccc3)c2)cn1 ?
NO

And for Nc1ncc(-c2cncc(NS(=O)(=O)c3cccc(C(F)(F)F)c3)c2)cn1 ?
YES

Continuing:
Lab note: Activity threshold 4%. Does this compound come in strictly under it? COc1ccc(S(=O)(=O)Nc2cncc(-c3cnc(N)nc3)c2)cc1
NO

And for Nc1ncc(-c2cncc(NS(=O)(=O)c3ccc(F)cc3F)c2)cn1 ?
NO

And for Nc1ncc(-c2cncc(NS(=O)(=O)c3ccc([N+](=O)[O-])cc3)c2)cn1 ?
NO

And for Cc1ccc(S(=O)(=O)Nc2cncc(-c3cnc(N)nc3)c2)cc1[N+](=O)[O-] ?
YES

And for CS(=O)(=O)Nc1cncc(-c2cnc(N)nc2)c1 ?
NO

And for Nc1cncc(-c2cnc(N)nc2)c1 ?
NO

###

Target system: Phosphatidylinositol 4,5-bisphosphate 3-kinase catalytic subunit alpha isoform (Homo sapiens, UniProt P42336)
Sequence (P42336 whole entry, canonical isoform): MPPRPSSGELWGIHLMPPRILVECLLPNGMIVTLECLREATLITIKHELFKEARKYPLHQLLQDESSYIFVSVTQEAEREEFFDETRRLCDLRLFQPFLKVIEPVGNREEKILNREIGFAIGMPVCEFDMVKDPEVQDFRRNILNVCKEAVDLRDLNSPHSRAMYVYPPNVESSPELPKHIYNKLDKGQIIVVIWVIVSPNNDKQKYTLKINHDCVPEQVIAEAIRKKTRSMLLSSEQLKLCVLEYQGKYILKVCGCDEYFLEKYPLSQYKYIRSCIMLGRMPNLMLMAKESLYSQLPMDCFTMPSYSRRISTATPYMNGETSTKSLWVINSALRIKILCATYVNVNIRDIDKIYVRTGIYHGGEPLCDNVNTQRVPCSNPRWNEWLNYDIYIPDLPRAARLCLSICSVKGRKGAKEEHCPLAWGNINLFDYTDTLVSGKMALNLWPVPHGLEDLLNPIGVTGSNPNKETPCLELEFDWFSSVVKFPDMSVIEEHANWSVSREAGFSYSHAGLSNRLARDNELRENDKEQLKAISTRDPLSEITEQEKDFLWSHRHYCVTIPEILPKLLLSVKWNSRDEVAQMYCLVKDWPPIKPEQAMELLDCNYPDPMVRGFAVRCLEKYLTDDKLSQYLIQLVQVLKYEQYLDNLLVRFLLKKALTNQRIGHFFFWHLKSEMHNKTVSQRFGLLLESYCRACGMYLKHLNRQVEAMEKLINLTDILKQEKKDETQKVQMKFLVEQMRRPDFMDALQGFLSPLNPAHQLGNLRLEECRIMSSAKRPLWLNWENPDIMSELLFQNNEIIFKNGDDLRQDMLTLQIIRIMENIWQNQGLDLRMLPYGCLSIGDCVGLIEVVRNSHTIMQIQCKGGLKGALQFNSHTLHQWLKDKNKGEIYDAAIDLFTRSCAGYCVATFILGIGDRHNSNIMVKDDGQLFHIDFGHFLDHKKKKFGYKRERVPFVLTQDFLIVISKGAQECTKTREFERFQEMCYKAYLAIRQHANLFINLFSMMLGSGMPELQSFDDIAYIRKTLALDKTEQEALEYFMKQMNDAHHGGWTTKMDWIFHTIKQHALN
Procedure text: Binding affinity to PI3Kalpha
pKd: −log10 of the molar value.
Endpoint: pKd

Report pKd for Nc1ncc(-c2cncc(NS(=O)(=O)c3ccc4ccccc4c3)c2)cn1 please.
< 4.40

###

Target system: Phosphatidylinositol 4,5-bisphosphate 3-kinase catalytic subunit beta isoform (Homo sapiens)
Procedure text: Inhibition of PI3Kbeta assessed as enzyme activity at 10 uM relative to control
Set-up: scale not given: the % may be the effect or the level left
Sequence (P42338 whole entry, looked up, canonical isoform): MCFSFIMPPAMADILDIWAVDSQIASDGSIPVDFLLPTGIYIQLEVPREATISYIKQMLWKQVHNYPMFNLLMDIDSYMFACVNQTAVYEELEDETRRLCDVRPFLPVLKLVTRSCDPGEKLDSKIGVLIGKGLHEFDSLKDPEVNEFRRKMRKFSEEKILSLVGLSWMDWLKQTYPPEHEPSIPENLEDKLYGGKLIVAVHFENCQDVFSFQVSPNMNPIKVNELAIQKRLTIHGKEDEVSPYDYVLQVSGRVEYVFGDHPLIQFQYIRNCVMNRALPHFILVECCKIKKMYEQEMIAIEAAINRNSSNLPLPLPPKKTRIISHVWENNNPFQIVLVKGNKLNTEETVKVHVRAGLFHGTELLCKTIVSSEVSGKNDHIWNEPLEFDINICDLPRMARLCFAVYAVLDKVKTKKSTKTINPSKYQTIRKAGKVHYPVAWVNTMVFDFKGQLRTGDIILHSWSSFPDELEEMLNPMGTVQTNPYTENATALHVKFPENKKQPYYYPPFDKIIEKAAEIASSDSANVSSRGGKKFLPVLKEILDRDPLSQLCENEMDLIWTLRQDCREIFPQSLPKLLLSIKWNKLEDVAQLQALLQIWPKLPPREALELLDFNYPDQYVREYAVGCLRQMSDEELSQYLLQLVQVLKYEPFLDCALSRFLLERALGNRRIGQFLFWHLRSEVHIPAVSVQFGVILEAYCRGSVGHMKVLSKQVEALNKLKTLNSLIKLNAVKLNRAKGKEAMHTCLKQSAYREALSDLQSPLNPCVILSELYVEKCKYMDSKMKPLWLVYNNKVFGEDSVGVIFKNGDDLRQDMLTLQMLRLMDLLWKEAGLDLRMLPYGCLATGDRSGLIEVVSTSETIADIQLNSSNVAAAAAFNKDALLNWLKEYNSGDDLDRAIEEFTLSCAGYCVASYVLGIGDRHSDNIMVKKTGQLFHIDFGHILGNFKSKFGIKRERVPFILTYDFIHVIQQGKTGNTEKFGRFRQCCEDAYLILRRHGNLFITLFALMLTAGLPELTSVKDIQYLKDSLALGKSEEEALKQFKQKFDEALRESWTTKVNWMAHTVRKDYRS
Could you please mark 1 for values of Activity below 5% and 0 for values at or above it?

See these solved cases before continuing.
Lab note: Activity threshold 5%. Does this molecule come in strictly under it? Nc1ncc(-c2cncc(NS(=O)(=O)c3ccc([N+](=O)[O-])cc3)c2)cn1
1

And for Nc1ncc(-c2cncc(NS(=O)(=O)c3ccccc3)c2)cn1 ?
1

Continuing:
Lab note: Activity threshold 5%. Does this molecule come in strictly under it? Cc1nc(N)nc(C)c1-c1cncc(NS(=O)(=O)c2ccccc2)c1
0

And for O=S(=O)(Nc1cncc(-c2ccc3nccn3c2)c1)c1ccccc1 ?
1

And for Nc1ncc(-c2cncc(NS(=O)(=O)c3ccc4ccccc4c3)c2)cn1 ?
1

And for Cc1nc(N)ncc1-c1cncc(NS(=O)(=O)c2ccccc2)c1 ?
0

And for CNc1ncc(-c2cncc(NS(=O)(=O)c3ccccc3)c2)cn1 ?
0

And for O=S(=O)(Nc1cncc(-c2cnc3nccn3c2)c1)c1ccccc1 ?
0

And for Nc1ncc(-c2cncc(NS(=O)(=O)c3ccc(F)cc3F)c2)cn1 ?
1

And for CN(C)c1ncc(-c2cncc(NS(=O)(=O)c3ccccc3)c2)cn1 ?
0

###

Target system: Phosphatidylinositol 4,5-bisphosphate 3-kinase catalytic subunit alpha isoform (Homo sapiens, UniProt P42336)
Procedure text: Inhibition of PI3Kalpha assessed as enzyme activity at 10 uM relative to control
Parameters: scale not given: the % may be the effect or the level left
Endpoint: Activity (%)
Give the value, in units of %, as a plain number.

Examples with answers:
Report Activity for Nc1ncc(-c2cncc(NS(=O)(=O)c3ccccc3)c2)cn1 please.
60

And for CS(=O)(=O)Nc1cncc(-c2cnc(N)nc2)c1 ?
62

And for Nc1ncc(-c2cncc(NS(=O)(=O)c3ccc(F)cc3F)c2)cn1 ?
22

Continuing:
Report Activity for Cc1nc(N)nc(C)c1-c1cncc(NS(=O)(=O)c2ccccc2)c1 please.
89

And for CN(C)c1ncc(-c2cncc(NS(=O)(=O)c3ccccc3)c2)cn1 ?
100

And for O=S(=O)(Nc1cncc(-c2ccc3nccn3c2)c1)c1ccccc1 ?
4

###

Target system: Phosphatidylinositol 4,5-bisphosphate 3-kinase catalytic subunit alpha isoform (Homo sapiens, UniProt P42336)
Procedure text: Inhibition of PI3Kalpha assessed as enzyme activity at 10 uM relative to control
Parameters: scale not given: the % may be the effect or the level left
Endpoint: Activity (%)
Give the value, in units of %, as a plain number.

Examples with answers:
Report Activity for Nc1cncc(-c2cnc(N)nc2)c1 please.
98

And for O=S(=O)(Nc1cncc(-c2cccnc2)c1)c1ccccc1 ?
52

And for O=S(=O)(Nc1cncc(-c2cnc3[nH]ccc3c2)c1)c1ccccc1 ?
56

And for Cc1nc(N)ncc1-c1cncc(NS(=O)(=O)c2ccccc2)c1 ?
66

And for O=S(=O)(Nc1cncc(-c2cnc3nccn3c2)c1)c1ccccc1 ?
95

Please find the next compound below.
Report Activity for Cc1ccc(S(=O)(=O)Nc2cncc(-c3cnc(N)nc3)c2)cc1[N+](=O)[O-] please.
42

###

Measured Activity by item
Target system: Serine/threonine-protein kinase mTOR (Homo sapiens)
Procedure text: Inhibition of mTOR assessed as enzyme activity relative to control
Set-up: concentration or dose not given beside the values
Give the value, in units of %, as a plain number.

Report Activity for Nc1ncc(-c2cncc(NS(=O)(=O)c3ccc4ccccc4c3)c2)cn1 please.
96

And for Cc1ccc(S(=O)(=O)Nc2cncc(-c3cnc(N)nc3)c2)cc1 ?
76

And for Nc1cncc(-c2cnc(N)nc2)c1 ?
53

And for COc1ccc(S(=O)(=O)Nc2cncc(-c3cnc(N)nc3)c2)cc1 ?
39

And for Nc1ncc(-c2cncc(NS(=O)(=O)c3ccc(F)cc3F)c2)cn1 ?
56

###

Target system: Phosphatidylinositol 4,5-bisphosphate 3-kinase catalytic subunit beta isoform (Homo sapiens)
Procedure text: Binding affinity to PI3Kbeta
Sequence (P42338 whole entry, canonical isoform): as the sequence (P42338 whole entry, looked up, canonical isoform) above
Endpoint: Kd

Examples with answers:
Report Kd for Nc1ncc(-c2cncc(NS(=O)(=O)c3ccccc3)c2)cn1 please.
360 nM

And for Nc1ncc(-c2cncc(NS(=O)(=O)c3ccc4ccccc4c3)c2)cn1 ?
230 nM

And for CC(=O)Nc1cncc(-c2cnc(N)nc2)c1 ?
> 20000 nM

Please find the next compound below.
Report Kd for Nc1cncc(-c2cnc(N)nc2)c1 please.
> 40000 nM

###

Measured Activity by item
Target system: Serine/threonine-protein kinase mTOR (Homo sapiens)
Procedure text: Inhibition of mTOR assessed as enzyme activity relative to control
Design: concentration or dose not given beside the values
Give the value, in units of %, as a plain number.

Examples with answers:
Report Activity for CS(=O)(=O)Nc1cncc(-c2cnc(N)nc2)c1 please.
67

And for Cc1ccc(S(=O)(=O)Nc2cncc(-c3cnc(N)nc3)c2)cc1[N+](=O)[O-] ?
78

And for Nc1ncc(-c2cncc(NS(=O)(=O)c3ccccc3)c2)cn1 ?
74

And for CC(=O)Nc1cncc(-c2cnc(N)nc2)c1 ?
79

And for Nc1ncc(-c2cncc(NS(=O)(=O)c3ccc([N+](=O)[O-])cc3)c2)cn1 ?
68

Please find the next molecule below.
Report Activity for Nc1ncc(-c2cncc(NS(=O)(=O)c3cccc(C(F)(F)F)c3)c2)cn1 please.
41
